Tested on: CAKI-1 renal
Experiment: NCI tumour cell line growth inhibition, 48 h
MEASUREMENT_NAME: TGI

Consider the worked cases shown below.
Cc1nc2ccc([N+](=O)[O-])cc2c(=O)n1C(=S)Nc1cccc(Cl)c1; 56 µM
CC1=C2[C@@H](CC1)[C@]1(C)O[C@@](C(C)C)(C[C@H]1OC(=O)[C@H](C)O)[C@H]2OC(=O)/C=C/c1ccccc1; 26 µM
CC1=CC=CC(C)(C)CC1(O[Si](C)(C)C)C(F)(F)F (configuration not stated); > 100 µM
CN(C)c1ccc(/C=C2\C[N+](C)(C)C/C(=C\c3ccc(N(C)C)cc3)C2=O)cc1; > 100 µM
COc1cc([C@@H]2c3cc4c(cc3C[C@H]3COC(=O)[C@@H]32)OCO4)cc(OC)c1OC; 1.72 µM

Required: TGI, one value per molecule below.
1. CC(=O)CC(=O)c1cc2c(=O)oc(C)cc2oc1=O
2. CCC1CCC2CCCC(C)N12 (configuration not stated)
3. O=C(CCc1ccc(O)cc1)c1c(O)cc(O)cc1OC1OC(CO)C(O)C(O)C1O (configuration not stated)
4. NC1(CCCCCCCCCCC(=O)O)CNCCNCCNCCNC1
5. Clc1cccc(NC=Nc2ccc(-c3nc4ccccc4s3)cc2)c1

Reply:
1. > 37.5 µM
2. > 100 µM
3. > 100 µM
4. > 100 µM
5. > 50 µM
